B1: MLL5 (parent)
chain: TYLCERCQPRNLDKERAVLLQRRK

variants of: B1; assay: protein stability index of a GFP-peptide fusion (GPS, HEK-293T) (PSI 1-6); higher = more stable; conditions: c terminus: a fixed tail appended;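 further: lentivirally expressed fusions sorted by FACS into six bins by GFP to DsRed ratio, PSI derived from sequencing read proportions per bin multiplied by bin number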

mutation.key: P9H
protein stability index: 1.97

mutation.key: N11D
protein stability index: 2.02

mutation.key: N11A
protein stability index: 2.05

mutation.key: L12H
protein stability index: 1.98

mutation.key: E15L
protein stability index: 2.05

mutation.key: D13M
protein stability index: 2

mutation.key: R10E
protein stability index: 1.99

mutation.key: L19V
protein stability index: 1.96

mutation.key: R22K
protein stability index: 2.03

mutation.key: L3T
protein stability index: 1.98

mutation.key: K14D
protein stability index: 1.98
